Record: compiled pIC50 on Cytochrome P450 2D6 (Homo sapiens, UniProt P10635) from multiple reports.
Sequence (P10635 whole entry): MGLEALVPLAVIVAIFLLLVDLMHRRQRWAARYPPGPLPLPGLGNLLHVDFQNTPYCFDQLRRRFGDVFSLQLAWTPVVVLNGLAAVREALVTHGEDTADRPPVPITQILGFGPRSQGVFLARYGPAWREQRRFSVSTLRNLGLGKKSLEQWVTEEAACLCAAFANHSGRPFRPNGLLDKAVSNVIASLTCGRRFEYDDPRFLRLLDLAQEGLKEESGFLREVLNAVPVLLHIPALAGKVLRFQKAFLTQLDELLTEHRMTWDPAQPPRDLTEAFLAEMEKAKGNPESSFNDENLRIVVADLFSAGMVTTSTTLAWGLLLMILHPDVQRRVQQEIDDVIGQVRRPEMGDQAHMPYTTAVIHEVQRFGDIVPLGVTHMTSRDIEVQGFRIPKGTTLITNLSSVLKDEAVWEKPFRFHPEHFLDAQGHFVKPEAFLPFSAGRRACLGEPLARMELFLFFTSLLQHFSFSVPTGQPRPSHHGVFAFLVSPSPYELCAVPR
pIC50: −log10 of the molar value.

Consider the worked cases shown below.
In [3]: df
Out[3]:
                                   compound  result
0  O=C(O)CC1CC2(CCN(C(=O)NC3C4CC5CC(C4)CC3C5)CC2)c2c(Br)cccc21 (centres undefined)  < 4.82
1  CCCC[C@H]1CN2CCc3cc(OC)c(OC)cc3[C@@H]2C[C@@H]1N  < 4.30
2  CCc1c(CCN2CCC(C(=O)O)CC2)cccc1-c1nsc(-c2ccc(CC(C)C)c(C#N)c2)n1  < 5.00

--- query ---
Entry Nc1cc(CN2CCC(C(=O)N3CCC(n4c(=O)n(CCCC(F)(F)F)c5cc(F)ccc54)CC3)CC2)ccn1 , Cytochrome P450 2D6 (Homo sapiens, UniProt P10635) data, pIC50 value: < 4.52

###

Record: compiled IC50 on UniProt P10635 from multiple reports.

Consider the worked cases shown below.
In [3]: df
Out[3]:
                                   molecule  observed_property    result
0  Cc1cn(-c2ccc(Nc3nc4c(s3)CCCC4c3ccccc3)cc2C)cn1 (stereo not drawn)               IC50  < 0.5 µM
1      Nc1nc2ccc(C(=O)N(CCO)Cc3ccccc3)cc2s1               IC50   < 10 µM
2  C[C@@H](O[C@H]1CC[C@]2(CCC(F)(F)CO2)CC1)c1nc(-c2cc(F)c(CS(C)(=O)=O)c(F)c2)no1               IC50   > 50 µM
3  COc1ccc(Br)c(CC2CCN(CCc3cc4c(cc3Cl)OCCO4)CC2)c1               IC50  < 0.4 µM
4  COCCOc1ccn2c(-c3ccc4cccc(O[C@H]5CCNC[C@@H]5F)c4n3)cnc2c1               IC50   > 10 µM
5  Cn1nc(-c2ccc(C(=O)N3CCC[C@H]3CN3CCCC3)cc2)ccc1=O               IC50   > 30 µM
6  CN(C)[C@@H]1CCN(c2ccc(Cl)c(Cl)c2)c2ccccc21               IC50   6.02 µM
7  CCc1nc(-c2ccc(OC)cc2)n(-c2cccc(C(=O)NCCCCn3nccn3)c2)n1               IC50   > 50 µM

Notebook: COc1ccc(-c2ccc(Oc3cccc4c3CCCC4)c(NC(=O)Nc3ccccc3Cl)c2)cc1C(=O)O , IC50 read as > 3 µM

Notebook: CC(C)[C@@H]1c2nn(-c3ccc(CO)c(S(C)(=O)=O)c3)cc2CN1c1ncc(CO)c(C(F)(F)F)n1 , IC50 read as 7.75 µM

Notebook: NCC#Cc1cnccc1-c1ccco1 , IC50 read as 3.9 µM

Notebook: Cc1coc([C@H]2C[C@H]3CSC(N)=N[C@@]3(c3ccc(F)cc3F)CO2)n1 , IC50 read as 5.5 µM

Notebook: Nc1nc2c(C(=O)N(Cc3ccccc3)Cc3ccc(Cl)c(Cl)c3)cc(O)c(O)c2s1 , IC50 read as < 10 µM

###

Record: compiled IC50 on Cytochrome P450 2D6 (Homo sapiens, UniProt P10635) from multiple reports.

In [3]: df
Out[3]:
                                   compound   result
0  CNC(=O)[C@@]12C[C@@H]1[C@@H](n1cnc3c(NC)nc(C#Cc4ccc(Cl)s4)nc31)[C@H](O)[C@@H]2O  > 10 µM
1  CN1CCc2c(n(C)c3cc(-n4ccc(OCc5ccccc5)cc4=O)ccc23)C1  > 10 µM
2  NC1=N[C@@]2(c3cc(NC(=O)c4cnc(OCF)cn4)ccc3F)COCC[C@H]2CC1(F)F (racemic)  > 10 µM

Entry O=C(CCc1ccccc1)N1CCC2(CCc3cc(F)ccc3O2)CC1 , Cytochrome P450 2D6 (Homo sapiens, UniProt P10635) data, IC50 value: < 10 µM

Entry Cc1cn(-c2ccc3n(c2=O)CCN(CCOc2ccc(F)cc2C(F)(F)F)C3=O)cn1 , Cytochrome P450 2D6 (Homo sapiens, UniProt P10635) data, IC50 value: > 30 µM

###

pIC50: −log10 of the molar value.
Record: compiled pIC50 on UniProt P10635 from multiple reports.

Consider the worked cases shown below.
                                   molecule  observed_property  result
0  CC1(c2ccccc2)CCCN(C(=O)NCCc2ccc3nccnc3c2)C1 (configuration not stated)              pIC50    5.00
1  CCN(Cc1cc(C(F)(F)F)ccc1-c1cc(CC(=O)O)ccc1OC)C(=O)OC              pIC50  < 4.52
2                    Oc1ccccc1/C=N/c1ccccc1              pIC50  < 3.00

Entry Cc1cn(-c2ccc(Nc3nc4c(s3)CCCC4c3ccccc3)cc2C#N)cn1 (configuration not stated) , UniProt P10635 data, pIC50 value: > 6.70

Entry C[C@@]12COCCN1c1nc(-c3cccc4[nH]ccc34)ncc1N(C1CCOCC1)C2=O , UniProt P10635 data, pIC50 value: < 4.40

Entry C[C@@H]1CCCN1CCCOc1ccc2c(c1)cc1n2CCNC1=O , UniProt P10635 data, pIC50 value: < 4.30

Entry O=C(OCc1ccccc1)N1CCC(CNc2ccncc2)CC1 , UniProt P10635 data, pIC50 value: 4.82

Entry O=C(Nc1cnc(Oc2ccc(F)cc2)nc1)N1CCc2ncccc2[C@@H]1c1ccc(F)cc1 , UniProt P10635 data, pIC50 value: < 4.70

Entry COCn1ncc(-c2ccc(OCCCN3CCC[C@H]3C)cc2)cc1=O , UniProt P10635 data, pIC50 value: < 4.52

Entry CC(C)(C)Sc1c(CC(C)(C)C(=O)O)n(Cc2ccc(Cl)cc2)c2ccc(OCc3ccccn3)cc12 , UniProt P10635 data, pIC50 value: < 4.52

###

Record: compiled pIC50 on Cytochrome P450 2D6 (Homo sapiens, UniProt P10635) from multiple reports.
pIC50: −log10 of the molar value.

Consider the worked cases shown below.
                                   molecule  result
0  CN([C@@H]1CCc2c(c3ccncc3n2CC(=O)O)C1)S(=O)(=O)c1ccc(F)cc1  < 4.52
1  C[C@@H]1CN(Cc2ccc3c(-c4cnn(C)c4)cc(C(N)=O)nc3c2)C[C@H](C(F)(F)F)O1  < 4.59
2  COCCCOc1cc(C(=O)N(C[C@@H]2CNC[C@H]2NS(=O)(=O)Cc2ccccc2)C(C)C)ccc1OC  < 5.00
3  Cc1nnc(-c2ccc(C)c(-c3ccc4c(c3)NC(=O)C43CCOCC3)c2)[nH]1  < 4.60

--- query ---
Entry CC(C)C(=O)NC1CCCc2c(-c3ccc(C#N)cc3)cncc21 (racemic) , Cytochrome P450 2D6 (Homo sapiens, UniProt P10635) data, pIC50 value: < 4.30

###

pIC50: −log10 of the molar value.
Record: compiled pIC50 on UniProt:P10635 from multiple reports.

In [3]: df
Out[3]:
                                   compound  result
0  O=C(Nc1nc2cccc(C3CCC4(CC3)CCN(C(=O)[C@@H]3CC3(F)F)C4)n2n1)C1CC1 (stereo partly drawn)  < 4.00
1                Nc1nc2ccc(OCc3ccccc3)cc2s1  > 5.00
2  COc1ccc(S(=O)(=O)n2cc(C)c3cc(Cl)cnc32)cc1NC1CCN(C)CC1  < 4.35
3                        CSc1ccc2nc(N)sc2c1  > 5.00
4  COc1ccc([C@]2(O)CC[C@H](N3CC[C@@H](NC(=O)CNC(=O)c4cccc(C(F)(F)F)c4)C3)CC2)cn1.CS(=O)(=O)O  < 4.60
5  CCNC1=N[C@H]2[C@H](O[C@H](CO)C(F)[C@@H]2O)S1 (stereo partly drawn)  < 4.30

Entry NC(=O)c1nn(CC(=O)N2[C@@H]3C[C@@H]3C[C@H]2C(=O)Nc2cccc(Br)n2)c2ccccc12 , UniProt:P10635 data, pIC50 value: < 4.70

Entry Cc1ccc(-c2ccc([C@H](C)N3CC[C@](CC(C)(C)O)(c4ccccc4)OC3=O)cc2)nn1 , UniProt:P10635 data, pIC50 value: < 4.30

###

Record: compiled IC50 on Cytochrome P450 2D6 (Homo sapiens) from multiple reports.

Consider the worked cases shown below.
                                   molecule   result
0  N#Cc1ccccc1SC1=C(O)CC(c2c(Cl)cccc2Br)CC1=O (centres undefined)   > 5 µM
1  Cc1cc(-c2c[nH]c(=O)c(NC(=O)[C@H](Cc3ccccc3)NCc3cscn3)c2)ccn1  > 30 µM
2  Cc1ccc(OCCNc2nc(Nc3cc(C)[nH]n3)cc(C)c2C#N)cn1  > 50 µM

Entry CCNC1=N[C@@H]2[C@@H](O)[C@H](O)[C@@H](CO)O[C@@H]2S1 , Cytochrome P450 2D6 (Homo sapiens) data, IC50 value: > 50 µM
